# System: Bacillus anthracis
# Measurement Description: Inhibition of recombinant Bacillus anthracis PurE assessed as change in melting temperature at 100 uM after 10 to 30 mins by high-throughput thermal shift screening
Decide by ΔTm: equal to or exceeding 2 °C means Yes, less means No.

In: Does `O=C(Oc1ccccc1)Oc1ccc(N(C(=O)Oc2ccccc2)S(=O)(=O)c2ccc3ccccc3c2)cc1Br` have a reported ΔTm of at least 2 °C?
Out: Yes

In: Does the reported ΔTm for `COc1cccc(-c2nc(Cn3nnc(C(=O)NCc4ccc(Cl)cc4)c3N)c(C)o2)c1OC` fall at or above the 2 °C mark?
Out: No

In: Assess whether reported ΔTm for `Nc1c([N+](=O)[O-])ncn1[C@@H]1O[C@H](COP(=O)(O)O)[C@@H](O)[C@H]1O` sits at 2 °C or higher.
Out: Yes

In: Record `Cc1c(C(=O)Nc2nnc(-c3cc(Cl)ccc3Cl)o2)c(-c2ccccc2)nc2ccccc12` ; criterion: ΔTm no lower than 2 °C. Met?
Out: Yes

In: Reported ΔTm at or above 2 °C? `O=C(NCc1c(-c2ccc(Cl)cc2)nc2n1CCS2)c1cccs1`
Out: Yes

In: Threshold query (ΔTm >= 2 °C) on `O=C(Nc1cccc(C(F)(F)F)c1)N1CCN(c2ccc3nncn3n2)CC1`
Out: Yes

In: Given the entry `Cc1ccc(C)c(-c2nnc(NC(=O)c3cccc(Cl)c3)o2)c1` , answer whether its ΔTm meets or surpasses 2 °C.
Out: Yes

In: Would you say `NS(=O)(=O)c1ccc(NC(=O)CSc2nnc(-c3ccccc3)o2)cc1` shows ΔTm at minimum 2 °C?
Out: No

In: Is ΔTm for `COc1ccc(Cl)c(C(=O)Nc2nnc(-c3ccc(Br)cc3)o2)c1` at or above 2 °C?
Out: No

In: # bool: ΔTm of `Cc1ccc(C)c(-c2nnc(NC(=O)c3cc(Cl)sc3Cl)o2)c1` >= 2 °C
Out: No

Where these numbers come from: ChEMBL document CHEMBL3399984
